molecular target: BRG1 (Homo sapiens, UniProt P51532); construct: either BRM primary antibody (Cell signaling Cat #11966) or BRG primary antibody (Abcam, ab 110641); endogenous in cells; host or cells: SW1573; assay: Immunofluorescence assay for BRG1 degradation in SW1573 cells; format: cell-based; details: 20 hours incubation, immunofluorescence mean nuclear signal, read-out: BRG1 IF Degradation IC50
Sequence (P51532 whole entry): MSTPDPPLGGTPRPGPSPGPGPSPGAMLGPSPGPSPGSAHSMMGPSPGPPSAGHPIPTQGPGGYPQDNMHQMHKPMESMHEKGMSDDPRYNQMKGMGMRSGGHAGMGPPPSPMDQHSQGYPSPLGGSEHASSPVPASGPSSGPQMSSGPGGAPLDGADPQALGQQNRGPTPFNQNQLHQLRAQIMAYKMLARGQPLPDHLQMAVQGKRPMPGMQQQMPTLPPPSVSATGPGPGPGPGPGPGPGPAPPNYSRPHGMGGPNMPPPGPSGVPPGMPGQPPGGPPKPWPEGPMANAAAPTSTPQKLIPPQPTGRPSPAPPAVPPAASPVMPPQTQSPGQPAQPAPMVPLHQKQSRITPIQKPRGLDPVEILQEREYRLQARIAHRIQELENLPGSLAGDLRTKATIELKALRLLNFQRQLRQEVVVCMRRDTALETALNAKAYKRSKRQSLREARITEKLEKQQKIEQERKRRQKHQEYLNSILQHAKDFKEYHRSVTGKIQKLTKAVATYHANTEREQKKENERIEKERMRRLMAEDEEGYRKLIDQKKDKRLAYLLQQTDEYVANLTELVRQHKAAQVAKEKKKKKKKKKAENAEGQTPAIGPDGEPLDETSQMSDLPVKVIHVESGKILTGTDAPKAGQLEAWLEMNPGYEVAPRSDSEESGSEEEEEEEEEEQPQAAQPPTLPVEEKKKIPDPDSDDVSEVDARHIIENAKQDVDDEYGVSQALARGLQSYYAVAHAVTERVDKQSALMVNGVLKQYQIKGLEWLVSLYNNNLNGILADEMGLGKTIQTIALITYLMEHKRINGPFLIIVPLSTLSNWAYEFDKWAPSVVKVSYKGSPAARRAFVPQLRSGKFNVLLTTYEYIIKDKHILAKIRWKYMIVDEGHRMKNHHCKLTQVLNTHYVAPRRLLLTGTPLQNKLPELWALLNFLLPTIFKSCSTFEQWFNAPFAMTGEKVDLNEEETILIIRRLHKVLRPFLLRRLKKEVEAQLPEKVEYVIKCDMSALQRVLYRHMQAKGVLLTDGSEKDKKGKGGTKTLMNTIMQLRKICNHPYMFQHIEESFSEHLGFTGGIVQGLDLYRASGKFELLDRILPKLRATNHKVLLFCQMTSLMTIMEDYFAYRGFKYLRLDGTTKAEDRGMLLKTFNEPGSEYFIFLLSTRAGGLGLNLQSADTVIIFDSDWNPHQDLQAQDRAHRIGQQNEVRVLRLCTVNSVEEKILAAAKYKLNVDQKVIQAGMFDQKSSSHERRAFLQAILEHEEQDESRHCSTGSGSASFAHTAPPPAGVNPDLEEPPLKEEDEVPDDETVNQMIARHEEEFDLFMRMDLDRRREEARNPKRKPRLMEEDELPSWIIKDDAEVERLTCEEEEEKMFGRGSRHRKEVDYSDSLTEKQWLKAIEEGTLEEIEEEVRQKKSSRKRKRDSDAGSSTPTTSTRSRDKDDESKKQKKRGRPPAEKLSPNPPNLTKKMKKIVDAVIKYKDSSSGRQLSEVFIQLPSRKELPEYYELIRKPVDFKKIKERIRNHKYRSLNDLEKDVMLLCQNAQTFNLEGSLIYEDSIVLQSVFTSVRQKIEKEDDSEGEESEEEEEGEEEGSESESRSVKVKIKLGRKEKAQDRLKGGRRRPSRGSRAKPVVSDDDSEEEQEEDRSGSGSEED
metric: DC50

{"columns": ["compound", "test.target", "metric", "value.observed"],
 "data": [
  ["Nc1nnc(-c2ccccc2O)cc1N1CC2CCC(C1)N2c1ccnc(C#CCN2CCOCC23CC3)c1", "BRG1 (Homo sapiens, UniProt P51532)", "DC50", "> 100 nM"],
  ["CC1(C)CN(CC#Cc2cc(N3C4CCC3CN(c3cc(-c5ccccc5O)nnc3N)C4)ccn2)CCO1", "BRG1 (Homo sapiens, UniProt P51532)", "DC50", "> 100 nM"],
  ["CNC(=O)C1COCCN1CC#Cc1cc(N2C3CCC2CN(c2cc(-c4ccccc4O)nnc2N)C3)ccn1 (stereo not shown)", "BRG1 (Homo sapiens, UniProt P51532)", "DC50", "> 100 nM"],
  ["Nc1nnc(-c2ccccc2O)cc1N1CC2CCC(C1)N2c1ccnc(C#CCN2CC3CCC2C3)c1 (stereo not shown)", "BRG1 (Homo sapiens, UniProt P51532)", "DC50", "< 10 nM"],
  ["Nc1nnc(-c2ccccc2O)cc1N1CC2CCC(C1)N2c1ccnc(C#CC2CCCNC2)c1 (stereo not shown)", "BRG1 (Homo sapiens, UniProt P51532)", "DC50", "> 100 nM"],
  ["Nc1nnc(-c2ccccc2O)cc1N1CC2CCC(C1)N2c1ccnc(C#CCN2CCCC3(CC2)CC3(F)F)c1 (stereo not shown)", "BRG1 (Homo sapiens, UniProt P51532)", "DC50", "< 10 nM"],
  ["CC1CCN1CC#Cc1cc(N2C3CCC2CN(c2cc(-c4ccccc4O)nnc2N)C3)ccn1 (stereo not shown)", "BRG1 (Homo sapiens, UniProt P51532)", "DC50", "< 10 nM"]
]}

* * *

biological target: BRG1 (Homo sapiens, UniProt P51532); construct: either BRM primary antibody (Cell signaling Cat #11966) or BRG primary antibody (Abcam, ab 110641); endogenous in cells; host or cells: SW1573; assay: Immunofluorescence assay for BRG1 degradation in SW1573 cells; format: cell-based; conditions: 20 hours incubation, immunofluorescence mean nuclear signal, read-out: BRG1 IF Degradation IC50
metric: DC50

{"columns": ["molecule", "value.observed"],
 "data": [
  ["Nc1nnc(-c2ccccc2O)cc1N1CC2CCC(C1)N2c1ccnc(C#CCN2CCC3CCC2CC3)c1 [Compound 218]", "< 0.01 µM"],
  ["Nc1nnc(-c2ccccc2O)cc1N1CC2CCC(C1)N2c1ccnc(C#CCN2CCCC(O)C2)c1 (stereo not shown) [Compound 50]", "> 0.1 µM"],
  ["CC1(O)CCN(CC#Cc2cc(N3C4CCC3CN(c3cc(-c5ccccc5O)nnc3N)C4)ccn2)C1 (stereo not shown) [Compound 62]", "< 0.01 µM"],
  ["Nc1nnc(-c2ccccc2O)cc1N1CC2CCC(C1)N2c1ccnc(C#CCN2CCC3(C2)CC3(F)F)c1 (stereo not shown) [Compound 84]", "> 0.1 µM"],
  ["Nc1nnc(-c2ccccc2O)cc1N1CC2CCC(C1)N2c1ccnc(C#CCNC(=O)C2CCNCC2)c1 [Compound 35]", "> 0.1 µM"],
  ["CC1CCCCCN1CC#Cc1cc(N2C3CCC2CN(c2cc(-c4ccccc4O)nnc2N)C3)ccn1 (stereo not shown) [Compound 201]", "< 0.01 µM"],
  ["COC[C@@H]1CCN1CC#Cc1cc(N2C3CCC2CN(c2cc(-c4ccccc4O)nnc2N)C3)ccn1 [Compound 186]", "0.01 to 0.1 µM"]
]}

* * *

molecular target: BRM (Homo sapiens); test: HiBIT nanoluciferase complementation screen for BRM degraders; assay type: cell-based; settings: compound 1 μM, 18 hours, BRM-HiBIT KI Hela cells; luminescence normalized: DMSO only = 0%, no cells = −100%
Sequence (P51531 whole entry): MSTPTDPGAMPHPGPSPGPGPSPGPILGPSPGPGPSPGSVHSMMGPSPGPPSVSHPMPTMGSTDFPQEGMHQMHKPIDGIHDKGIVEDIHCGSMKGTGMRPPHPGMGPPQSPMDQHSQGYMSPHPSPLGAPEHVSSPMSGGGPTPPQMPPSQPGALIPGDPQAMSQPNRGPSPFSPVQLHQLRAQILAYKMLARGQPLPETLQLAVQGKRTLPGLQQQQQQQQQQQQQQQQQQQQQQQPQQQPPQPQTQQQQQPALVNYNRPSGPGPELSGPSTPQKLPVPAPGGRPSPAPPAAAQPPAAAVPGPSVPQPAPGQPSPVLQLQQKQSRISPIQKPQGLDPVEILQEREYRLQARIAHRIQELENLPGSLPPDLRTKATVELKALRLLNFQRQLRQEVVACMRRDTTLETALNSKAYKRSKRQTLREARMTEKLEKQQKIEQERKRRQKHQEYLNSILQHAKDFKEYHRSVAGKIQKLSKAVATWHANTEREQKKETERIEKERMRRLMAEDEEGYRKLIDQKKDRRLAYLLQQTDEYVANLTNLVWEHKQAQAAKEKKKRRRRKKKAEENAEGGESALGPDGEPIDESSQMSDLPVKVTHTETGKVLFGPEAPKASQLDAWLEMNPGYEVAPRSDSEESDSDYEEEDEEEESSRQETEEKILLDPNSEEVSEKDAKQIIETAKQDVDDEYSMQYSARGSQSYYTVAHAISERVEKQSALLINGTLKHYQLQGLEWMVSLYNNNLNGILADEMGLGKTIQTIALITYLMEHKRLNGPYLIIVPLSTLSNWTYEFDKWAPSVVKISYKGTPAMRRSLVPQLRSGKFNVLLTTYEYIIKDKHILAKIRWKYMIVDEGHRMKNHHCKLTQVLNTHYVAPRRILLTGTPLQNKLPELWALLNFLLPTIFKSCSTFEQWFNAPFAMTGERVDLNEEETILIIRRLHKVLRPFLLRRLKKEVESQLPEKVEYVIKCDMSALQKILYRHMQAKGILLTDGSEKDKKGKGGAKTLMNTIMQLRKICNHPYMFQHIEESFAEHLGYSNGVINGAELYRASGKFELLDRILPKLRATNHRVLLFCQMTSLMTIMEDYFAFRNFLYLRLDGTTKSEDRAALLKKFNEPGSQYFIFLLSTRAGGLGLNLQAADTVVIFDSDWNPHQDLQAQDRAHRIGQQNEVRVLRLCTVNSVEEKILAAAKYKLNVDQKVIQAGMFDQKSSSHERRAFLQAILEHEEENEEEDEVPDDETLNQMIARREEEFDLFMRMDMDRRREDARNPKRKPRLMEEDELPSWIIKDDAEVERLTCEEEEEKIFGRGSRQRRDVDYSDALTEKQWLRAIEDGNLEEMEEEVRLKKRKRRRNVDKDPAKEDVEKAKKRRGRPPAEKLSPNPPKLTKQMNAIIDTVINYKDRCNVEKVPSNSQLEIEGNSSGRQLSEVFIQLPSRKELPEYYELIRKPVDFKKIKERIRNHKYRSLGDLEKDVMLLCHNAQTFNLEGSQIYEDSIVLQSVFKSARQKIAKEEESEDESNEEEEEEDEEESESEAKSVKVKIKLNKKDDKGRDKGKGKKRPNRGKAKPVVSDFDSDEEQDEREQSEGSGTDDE
Classes are defined on Median HiBiT activity 1 μM with ranges LOW: < -50%; MID: ≥ -50% and < -30%; HIGH: ≥ -30%

{"columns": ["molecule", "assigned.category"],
 "data": [
  ["Nc1nnc(-c2ccccc2O)cc1N1CC2CCC(C1)N2c1ccnc(C#C[C@H]2CC[C@H](N)CC2)c1 [Compound 29]", "HIGH"],
  ["Nc1nnc(-c2ccccc2O)cc1N1CC2CCC(C1)N2c1ccnc(C#CCC2CCNC2)c1 (stereo not shown) [Compound 34]", "HIGH"],
  ["NCC(=O)NCCCc1cc(N2C3CCC2CN(c2cc(-c4ccccc4O)nnc2N)C3)ccn1 [Compound 32]", "HIGH"],
  ["Nc1nnc(-c2ccccc2O)cc1N1CC2CCC(C1)N2c1ccnc(C#CCN2CCNCC2)c1 [Compound 28]", "HIGH"],
  ["Nc1nnc(-c2ccccc2O)cc1N1CC2CCC(C1)N2c1ccnc(C#CC2CCCNC2)c1 (stereo not shown) [Compound 8]", "LOW"],
  ["Nc1nnc(-c2ccccc2O)cc1N1CC2CCC(C1)N2c1ccnc(C#CC2CNC2)c1 [Compound 6]", "LOW"],
  ["CCN(CC)CC#Cc1cc(N2C3CCC2CN(c2cc(-c4ccccc4O)nnc2N)C3)ccn1 [Compound 5]", "LOW"],
  ["Cn1cc(C#Cc2cc(N3C4CCC3CN(c3cc(-c5ccccc5O)nnc3N)C4)ccn2)cn1 [Compound 21]", "MID"],
  ["Nc1nnc(-c2ccccc2O)cc1N1CC2CCC(C1)N2c1ccnc(C#CCN2CCCC(N)C2)c1 (stereo not shown) [Compound 31]", "HIGH"],
  ["Nc1nnc(-c2ccccc2O)cc1N1CC2CCC(C1)N2c1ccnc(C#CCCO)c1 [Compound 26]", "HIGH"],
  ["Nc1nnc(-c2ccccc2O)cc1N1CC2CCC(C1)N2c1ccnc(C#CCN2CCCC2)c1 [Compound 2]", "LOW"],
  ["Nc1nnc(-c2ccccc2O)cc1N1CC2CCC(C1)N2c1ccnc(C#CCN2CCC(N)C2)c1 (stereo not shown) [Compound 15]", "MID"],
  ["Nc1nnc(-c2ccccc2O)cc1N1CC2CCC(C1)N2c1ccnc(C#CC2CCNCC2)c1 [Compound 19]", "MID"],
  ["NCCCc1cc(N2C3CCC2CN(c2cc(-c4ccccc4O)nnc2N)C3)ccn1 [Compound 33]", "HIGH"],
  ["Nc1nnc(-c2ccccc2O)cc1N1CC2CCC(C1)N2c1ccnc(C#CC2CNCCO2)c1 (stereo not shown) [Compound 7]", "LOW"],
  ["CN(CC#Cc1cc(N2C3CCC2CN(c2cc(-c4ccccc4O)nnc2N)C3)ccn1)CCO [Compound 3]", "LOW"],
  ["Nc1nnc(-c2ccccc2O)cc1N1CC2CCC(C1)N2c1ccnc(C#CCCN2CCNCC2)c1 [Compound 1]", "LOW"],
  ["Nc1nnc(-c2ccccc2O)cc1N1CC2CCC(C1)N2c1ccnc(C#CCOCCO)c1 [Compound 4]", "LOW"],
  ["NCCCCCCc1cc(N2C3CCC2CN(c2cc(-c4ccccc4O)nnc2N)C3)ccn1 [Compound 20]", "MID"],
  ["Nc1nnc(-c2ccccc2O)cc1N1CC2CCC(C1)N2c1ccnc(C#CC2CCCN2)c1 (stereo not shown) [Compound 14]", "MID"],
  ["NCC#Cc1cc(N2C3CCC2CN(c2cc(-c4ccccc4O)nnc2N)C3)ccn1 [Compound 24]", "HIGH"],
  ["NCCC#Cc1cc(N2C3CCC2CN(c2cc(-c4ccccc4O)nnc2N)C3)ccn1 [Compound 30]", "HIGH"],
  ["Nc1nnc(-c2ccccc2O)cc1N1CC2CCC(C1)N2c1ccnc(C#CCOC2CCCNC2)c1 (stereo not shown) [Compound 12]", "MID"],
  ["Nc1nnc(-c2ccccc2O)cc1N1CC2CCC(C1)N2c1ccnc(C#CC2CCN2)c1 (stereo not shown) [Compound 17]", "MID"],
  ["Nc1nnc(-c2ccccc2O)cc1N1CC2CCC(C1)N2c1ccnc(C#CCC2CCCN2)c1 (stereo not shown) [Compound 16]", "MID"],
  ["Nc1nnc(-c2ccccc2O)cc1N1CC2CCC(C1)N2c1ccnc(C#CCN2CCS(=O)(=O)CC2)c1 [Compound 18]", "MID"],
  ["Nc1nnc(-c2ccccc2O)cc1N1CC2CCC(C1)N2c1ccnc(C#CCC2CCCCN2)c1 (stereo not shown) [Compound 13]", "MID"],
  ["Nc1nnc(-c2ccccc2O)cc1N1CC2CCC(C1)N2c1ccnc(C#CC2CCNC2)c1 (stereo not shown) [Compound 25]", "HIGH"],
  ["NCCCCCCC#Cc1cc(N2C3CCC2CN(c2cc(-c4ccccc4O)nnc2N)C3)ccn1 [Compound 11]", "MID"],
  ["Nc1nnc(-c2ccccc2O)cc1N1CC2CCC(C1)N2c1ccnc(C#CCCCCO)c1 [Compound 27]", "HIGH"]
]}

* * *

target: BRG1 (Homo sapiens); construct: either BRM primary antibody (Cell signaling Cat #11966) or BRG primary antibody (Abcam, ab 110641); endogenous in cells; host or cells: SW1573; test: Immunofluorescence assay for BRG1 degradation in SW1573 cells; assay type: cell-based; details: 20 hours incubation, immunofluorescence mean nuclear signal, read-out: BRG1 IF Degradation IC50

{"columns": ["compound", "DC50"],
 "data": [
  ["NCCCc1cc(N2C3CCC2CN(c2cc(-c4ccccc4O)nnc2N)C3)ccn1 [Compound 33]", "> 100 nM"],
  ["Nc1nnc(-c2ccccc2O)cc1N1CC2CCC(C1)N2c1ccnc(C#CCN2CC3(CCCCC3)C2)c1 [Compound 230]", "10 to 100 nM"],
  ["Nc1nnc(-c2ccccc2O)cc1N1CC2CCC(C1)N2c1ccnc(C#CC2CCOCC2)c1 [Compound 22]", "> 100 nM"],
  ["Nc1nnc(-c2ccccc2O)cc1N1CC2CCC(C1)N2c1ccnc(C#CCN2CC3COC(C3)C2)c1 (stereo not drawn) [Compound 98]", "> 100 nM"],
  ["Nc1nnc(-c2ccccc2O)cc1N1CC2CCC(C1)N2c1cnnc(C#CCN2CCCCCC2)c1 [Compound 246]", "< 10 nM"],
  ["Nc1nnc(-c2ccccc2O)cc1N1CC2CCC(C1)N2c1ccnc(C#CCN2CC3(CCCO3)C2)c1 [Compound 178]", "< 10 nM"],
  ["Nc1nnc(-c2ccccc2O)cc1N1CC2CCC(C1)N2c1ccnc(C#CCN2CCC(F)(F)C2)c1 [Compound 43]", "< 10 nM"],
  ["CC1COCCN1CC#Cc1cc(N2C3CCC2CN(c2cc(-c4ccccc4O)nnc2N)C3)ccn1 (stereo not drawn) [Compound 57]", "> 100 nM"],
  ["CNC(=O)[C@H]1CCN(CC#Cc2cc(N3C4CCC3CN(c3cc(-c5ccccc5O)nnc3N)C4)ccn2)C1 [Compound 122]", "10 to 100 nM"],
  ["Nc1nnc(-c2ccccc2O)cc1N1CC2CCC(C1)N2c1ccnc(C#CCN2CC(O)C2)c1 [Compound 168]", "10 to 100 nM"],
  ["COC1CCCN(CC#Cc2cc(N3C4CCC3CN(c3cc(-c5ccccc5O)nnc3N)C4)ccn2)C1 (stereo not drawn) [Compound 37]", "< 10 nM"],
  ["Nc1nnc(-c2ccccc2O)cc1N1CC2CCC(C1)N2c1ccnc(C#CCN2CCC3OCCC3C2)c1 (stereo not drawn) [Compound 145]", "< 10 nM"],
  ["Nc1nnc(-c2ccccc2O)cc1N1CC2CCC(C1)N2c1ccnc(C#CCOCCO)c1 [Compound 4]", "10 to 100 nM"],
  ["CC1(O)CCCN(CC#Cc2cc(N3C4CCC3CN(c3cc(-c5ccccc5O)nnc3N)C4)ccn2)CC1 (stereo not drawn) [Compound 244]", "< 10 nM"],
  ["Nc1nnc(-c2ccccc2O)cc1N1CC2CCC(C1)N2c1ccnc(C#CCN2CC(CO)(c3ccccc3)C2)c1 [Compound 179]", "10 to 100 nM"],
  ["Nc1nnc(-c2ccccc2O)cc1N1CCC2(CCN(c3ccnc(C#CCN4CCCCCC4)c3)C2)CC1 [Compound 250]", "10 to 100 nM"],
  ["Nc1nnc(-c2ccccc2O)cc1N1CC2CCC(C1)N2c1ccnc(C#CCN2CC3CCCCC3C2)c1 (stereo not drawn) [Compound 39]", "< 10 nM"],
  ["CNC(=O)C12CC(CN1CC#Cc1cc(N3C4CCC3CN(c3cc(-c5ccccc5O)nnc3N)C4)ccn1)C2 [Compound 148]", "> 100 nM"],
  ["C[C@@H](N)C#Cc1cc(N2C3CCC2CN(c2cc(-c4ccccc4O)nnc2N)C3)ccn1 [Compound 23]", "10 to 100 nM"],
  ["Nc1nnc(-c2ccccc2O)cc1N1CC2CCC(C1)N2c1ccnc(C#CCN2CCCC2)c1 [Compound 2]", "< 10 nM"],
  ["CC[C@@H]1COCCN1CC#Cc1cc(N2C3CCC2CN(c2cc(-c4ccccc4O)nnc2N)C3)ccn1 [Compound 48]", "10 to 100 nM"],
  ["Nc1nnc(-c2ccccc2O)cc1N1CC2CCC(C1)N2c1ccnc(C#CCN2CC3CC3C2)c1 (stereo not drawn) [Compound 68]", "< 10 nM"],
  ["Nc1nnc(-c2ccccc2O)cc1N1CC2CCC(C1)N2c1ccnc(C#CCN2CCc3nccn3CC2)c1 [Compound 203]", "> 100 nM"],
  ["CS(=O)(=O)N1CCC2(CN(CC#Cc3cc(N4C5CCC4CN(c4cc(-c6ccccc6O)nnc4N)C5)ccn3)C2)C1 [Compound 236]", "10 to 100 nM"],
  ["Nc1nnc(-c2ccccc2O)cc1N1CC2CCC(C1)N2c1ccnc(C#CCN2CC(c3ccncn3)C2)c1 [Compound 231]", "< 10 nM"],
  ["N#Cc1ccc(C2CN(CC#Cc3cc(N4C5CCC4CN(c4cc(-c6ccccc6O)nnc4N)C5)ccn3)C2)cc1 [Compound 237]", "10 to 100 nM"],
  ["CC1CCCN(CC#Cc2cc(N3C4CCC3CN(c3cc(-c5ccccc5O)nnc3N)C4)ccn2)CC1 (stereo not drawn) [Compound 200]", "< 10 nM"],
  ["Nc1nnc(-c2ccccc2O)cc1N1CC2CCC(C1)N2c1ccnc(C#CCN2CC3CCC(C3)C2)c1 [Compound 93]", "> 100 nM"],
  ["Nc1nnc(-c2ccccc2O)cc1N1CC2CCC(C1)N2c1ccnc(C#CCN2CC(F)(CO)C2)c1 [Compound 171]", "> 100 nM"],
  ["Nc1nnc(-c2ccccc2O)cc1N1CC2CCC(C1)N2c1ccnc(C#CCN2CC3(CCCC3)C2)c1 [Compound 155]", "< 10 nM"]
]}

Data provenance: patent US11993599B2
